- System: X. citri subsp. citri strain 306 (IBSBF 1594)
- testSummary: MIC by Resazurin Microtiter Assay (REMA)
- Type: cell-based, Xanthomonas citri subsp. citri
- assayContext: Xanthomonas citri, 12 h, REMA, NYG medium, 29 °C, read-out: MIC in μM
MIC listing for selected compounds.

Worked set:
                       compound  resultvalue
0  O=C(OC1CCCCC1)c1ccc(O)c(O)c1     > 423 µM
1  CCCCCCCCCCOC(=O)c1ccc(O)cc1O     > 340 µM
2      CCCCCCOC(=O)c1cc(O)ccc1O       140 µM

Item O=C(O)c1ccc(O)c(O)c1 [3,4 DHB acid, 3,4 dihydroxybenzoic acid, reference compound] has what recorded MIC?
> 648 µM

Item `CCCCCCCCOC(=O)c1cc(O)ccc1O` has what recorded MIC?
> 375 µM

Item `O=C(OCCc1ccccc1)c1ccc(O)c(O)c1` has what recorded MIC?
345 µM

Item `O=C(OCCc1ccccc1)c1cc(O)ccc1O` has what recorded MIC?
231 µM

Item `O=C(OC1CCCC1)c1ccc(O)c(O)c1` has what recorded MIC?
> 450 µM

Item O=C(O)c1ccc(O)cc1O [2,4 DHB acid, 2,4 dihydroxybenzoic acid, reference compound] has what recorded MIC?
> 648 µM

Item `CCCCCCCCCCOC(=O)c1cc(O)ccc1O` has what recorded MIC?
> 340 µM

Measured values drawn from paper PMC6213047 for this set.
